molecular target: canine TRPM8 (Canis lupus familiaris, UniProt Q1A7N1); experiment: In Vitro Canine TRPM8 Functional Assay (Ca2+ fluorescence, icilin activation); assay type: cell-based; settings: compound at 0.2 μM; canine TRPM8, icilin activation; read-out: % Inh @ 0.2
Sequence (Q1A7N1 1-1104): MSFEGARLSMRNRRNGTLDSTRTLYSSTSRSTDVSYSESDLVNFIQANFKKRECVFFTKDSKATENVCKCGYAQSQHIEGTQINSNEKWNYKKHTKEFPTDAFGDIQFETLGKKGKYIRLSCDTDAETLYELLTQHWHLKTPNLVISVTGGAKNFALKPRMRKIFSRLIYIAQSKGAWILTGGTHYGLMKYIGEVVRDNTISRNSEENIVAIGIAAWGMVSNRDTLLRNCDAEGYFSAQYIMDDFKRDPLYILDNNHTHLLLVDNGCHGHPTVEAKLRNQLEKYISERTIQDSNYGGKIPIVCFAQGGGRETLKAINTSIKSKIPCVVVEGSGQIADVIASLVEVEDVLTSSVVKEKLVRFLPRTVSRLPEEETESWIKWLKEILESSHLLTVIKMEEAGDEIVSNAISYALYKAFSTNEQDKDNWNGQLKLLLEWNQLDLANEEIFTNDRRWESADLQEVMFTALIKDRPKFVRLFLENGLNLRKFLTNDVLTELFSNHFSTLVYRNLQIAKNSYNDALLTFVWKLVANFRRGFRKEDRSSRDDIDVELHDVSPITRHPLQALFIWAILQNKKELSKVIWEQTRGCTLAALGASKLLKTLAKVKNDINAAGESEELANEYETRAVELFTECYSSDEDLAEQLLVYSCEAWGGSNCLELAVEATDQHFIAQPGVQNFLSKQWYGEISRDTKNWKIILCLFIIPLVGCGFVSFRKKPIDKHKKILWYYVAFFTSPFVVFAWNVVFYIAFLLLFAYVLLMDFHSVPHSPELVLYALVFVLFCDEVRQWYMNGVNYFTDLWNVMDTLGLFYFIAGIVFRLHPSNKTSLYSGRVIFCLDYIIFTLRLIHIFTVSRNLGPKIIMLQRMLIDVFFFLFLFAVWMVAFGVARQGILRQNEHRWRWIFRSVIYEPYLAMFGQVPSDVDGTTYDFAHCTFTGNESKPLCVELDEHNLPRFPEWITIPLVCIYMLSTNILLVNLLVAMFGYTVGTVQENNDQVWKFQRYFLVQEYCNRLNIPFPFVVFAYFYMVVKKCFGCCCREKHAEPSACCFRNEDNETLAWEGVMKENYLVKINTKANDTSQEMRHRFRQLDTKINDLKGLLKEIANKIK
EXPERIMENTAL_ENDPOINT: inhibition at 0.2 µM (%)

- COMPOUND: "Cc1c(N(Cc2cccc(OC(F)(F)F)c2)S(=O)(=O)CCC(C)(C)O)sc2ccccc12 [Compound 763]"
  inhibition at 0.2 µM (%): 102
- COMPOUND: "CCCCN(c1sc2ccccc2c1C(C)(C)O)S(=O)(=O)c1ccc(C(=O)O)cc1 [Compound 343]"
  inhibition at 0.2 µM (%): 98
- COMPOUND: "Cc1c(N(Cc2ccc(OC(F)(F)F)cc2)S(=O)(=O)c2nc3ccccc3[nH]2)sc2ccccc12 [Compound 729]"
  inhibition at 0.2 µM (%): 75
- COMPOUND: "Cc1c(N(CCCCC(F)(F)F)S(=O)(=O)c2cccc3nccnc23)sc2ccccc12 [Compound 721]"
  inhibition at 0.2 µM (%): 102
- COMPOUND: "CNc1ccc(S(=O)(=O)N(CCC2CC2)c2sc3ccccc3c2Cl)cc1Cl [Compound 691]"
  inhibition at 0.2 µM (%): 102
- COMPOUND: "O=c1[nH]c(-c2ccc(S(=O)(=O)N(Cc3ccc(F)c(C(F)(F)F)c3)c3sc4ccccc4c3Cl)cc2)no1 [Compound 512]"
  inhibition at 0.2 µM (%): 102
- COMPOUND: "CSCCN(c1cc2ccccc2s1)S(=O)(=O)c1ccccc1 [Compound 120]"
  inhibition at 0.2 µM (%): 75
- COMPOUND: "O=C(O)c1ccc(S(=O)(=O)N(Cc2ccc(F)c(C(F)(F)F)c2)c2sc3ccccc3c2Br)cc1 [Compound 292]"
  inhibition at 0.2 µM (%): 98
- COMPOUND: "O=S(=O)(c1cccnc1)N(Cc1ccc(OC(F)(F)F)cc1)c1sc2ccccc2c1Br [Compound 323]"
  inhibition at 0.2 µM (%): 102
- COMPOUND: "CCCCCN(c1sc2ccccc2c1Br)S(=O)(=O)c1ccc(C(=O)O)cc1 [Compound 392]"
  inhibition at 0.2 µM (%): 93
- COMPOUND: "CCCCN(c1sc2ccccc2c1Cl)S(=O)(=O)c1ccc(N(C)C)cc1 [Compound 561]"
  inhibition at 0.2 µM (%): 103
- COMPOUND: "CS(=O)(=O)Nc1ccc(S(=O)(=O)N(Cc2ccc(F)c(C(F)(F)F)c2)c2sc3ccccc3c2Cl)cc1 [Compound 659]"
  inhibition at 0.2 µM (%): 100

These measurements were taken from patent US9434711B2.
